- PROTOCOL TEXT: NCI Yeast Anticancer Drug Screen. Data for the rad50 strain (AID 155);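 further: 0% = growth of vehicle-only cultures of the same strain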
- CONDITION PARAMETERS: S. cerevisiae rad50 strain growth inhibition; at 50.0 µM; active compounds read high
About 79,000 compounds went through this panel and 15% of them were active in at least one assay; those are over-represented in the sample as a whole.
Readings of growth inhibition for the listed compounds
EXPERIMENTAL ENDPOINT: growth inhibition (%)

{"COMPOUND": "Nc1cc(Nc2ccc(Cl)[nH]c2=S)nc(N)n1", "OBSERVED MEASUREMENT": 31.1}
{"COMPOUND": "OC1CCC2OC12 (stereo unspecified)", "OBSERVED MEASUREMENT": 7.3}
{"COMPOUND": "O=c1[nH]cnc2oc(-c3ccccc3)nc12", "OBSERVED MEASUREMENT": -0.3}
{"COMPOUND": "CC(C)(C)C1(C#N)C(=O)N(c2ccc(Cl)cc2)C12c1ccccc1-c1ccccc12 (stereo unspecified)", "OBSERVED MEASUREMENT": 4.55}
{"COMPOUND": "CCC1CCN(CC)CC1", "OBSERVED MEASUREMENT": 3.1}
{"COMPOUND": "COc1cc(CC2C(=O)OCC2C2(c3ccc4c(c3)OCO4)SCCCS2)cc(OC)c1OC (stereo unspecified)", "OBSERVED MEASUREMENT": 10.4}
{"COMPOUND": "Cc1ccc(C(C)C)cc1NC(=O)c1c(Cl)c(Cl)c(Cl)c(Cl)c1C(=O)O", "OBSERVED MEASUREMENT": 14.6}
{"COMPOUND": "CCN(CC)CC(C(=O)Nc1c(C)cccc1C)/C(C)=N\\NC(=O)C[N+](C)(C)C (stereo unspecified)", "OBSERVED MEASUREMENT": 19.4}
{"COMPOUND": "O=C(/C=C(\\C(=O)c1ccccc1)c1ccccc1)c1ccc(Cl)cc1", "OBSERVED MEASUREMENT": -12}
{"COMPOUND": "COc1ccc(C2=C(c3ccccc3)C(=O)C(c3ccccc3)=C2c2ccccc2)cc1", "OBSERVED MEASUREMENT": -12.9}
{"COMPOUND": "COc1ccc(OC)c(NC(C)=O)c1", "OBSERVED MEASUREMENT": -30.4}
